Can you tell me RBC for the items I'm about to list?
# Species: Rattus norvegicus
# METHOD: Open TG-GATES - Regimen: Daily Repeat
# Type: toxicity, organism-based, Sprague-Dawley
# Design: regimen Daily Repeat, gender Male, age 6 weeks
# EXPERIMENTAL_PARAMETERS: in vivo, po, 300 mg/kg, […], tissue Blood, route gavage, dose level Middle, time 28 day
Numbers only, in x10_4/ul.

Worked set:
compound="CC(S)C(=O)NCC(=O)O (centres undefined)" result_number=764.2
compound="CCCCNC(=O)NS(=O)(=O)c1ccc(C)cc1 [TOLBUTAMIDE]" result_number=823.4

# map each compound to its RBC
1. O=C(O)c1ccccc1Nc1ccccc1
2. CC(=O)[C@@]1(O)CC[C@H]2[C@@H]3C=C(Cl)C4=CC(=O)CC[C@]4(C)[C@H]3CC[C@@]21C

Result:
1: 789.8; 2: 860

---

# Organism: Rattus norvegicus
# METHOD: Open TG-GATES - Regimen: Daily Repeat
# Type: toxicity, organism-based, Sprague-Dawley
# Parameters: regimen Daily Repeat, gender Male, age 6 weeks
# EXPERIMENTAL_PARAMETERS: in vivo, po, 0 mg/kg, […], tissue Plasma, route gavage, dose level Control, time 14 day
Assign RALB to each entry below.
Numbers only, in g/dL.

Hey, quick one: what's RALB for each of these?
1. CN(C/C=C/C#CC(C)(C)C)Cc1cccc2ccccc12
2. CCCCC1C(=O)N(c2ccccc2)N(c2ccccc2)C1=O
3. COc1ccc([C@@H]2Sc3ccccc3N(CCN(C)C)C(=O)[C@@H]2OC(C)=O)cc1
4. O=c1ccc2ccccc2o1
5. NS(=O)(=O)c1cc(C(=O)O)c(NCc2ccco2)cc1Cl [FUROSEMIDE]
6. Nc1ccc(Cc2ccc(N)cc2)cc1
7. CCN(CC)C(=S)SSC(=S)N(CC)CC
8. CCO

Result:
1. 3.4
2. 4
3. 2.8
4. 4
5. 2.8
6. 2.7
7. 3.2
8. 3.8

---

# Species: Rattus norvegicus
# METHOD: Open TG-GATES - Regimen: Daily Repeat
# Type: toxicity, organism-based, Sprague-Dawley
# Set-up: regimen Daily Repeat, gender Male, age 6 weeks
# EXPERIMENTAL_PARAMETERS: in vivo, po, 0 mg/kg, 72 h, tissue Blood, route gavage, dose level Control, time 3 day
Assign 1 whenever Ht does not fall below 40%; assign -1 whenever it does.

Here's what some known entries look like.
compound=Nc1ccc(Cc2ccc(N)cc2)cc1 qualitative_label=-1
compound="CCCCNC(=O)NS(=O)(=O)c1ccc(C)cc1 [TOLBUTAMIDE]" qualitative_label=1

Problem: Exam item: decide whether the reported Ht for `CCN(CC)C(=S)SSC(=S)N(CC)CC` is at least 40%.
Result: -1

Problem: Also need `O=C(O)c1ccccc1Nc1ccccc1` , thanks.
Result: 1

Problem: Similarly, `CCO` ?
Result: 1

---

Hi there, I'd appreciate the recorded ALT for every entry that follows.
# Organism: Rattus norvegicus
# METHOD: Open TG-GATES - Regimen: Daily Repeat
# Type: toxicity, organism-based, Sprague-Dawley
# Set-up: regimen Daily Repeat, gender Male, age 6 weeks
# EXPERIMENTAL_PARAMETERS: in vivo, po, 0 mg/kg, […], tissue Plasma, route gavage, dose level Control, time 14 day
Answers are plain numbers, in IU/L.

compound=Nc1ccc(Cc2ccc(N)cc2)cc1 unit_spec=IU/L result_number=36.6
compound="O=C(O)c1ccccc1Nc1ccccc1 [FENAMIC ACID]" unit_spec=IU/L result_number=36
compound="CC(S)C(=O)NCC(=O)O (stereo unspecified) [TIOPRONIN]" unit_spec=IU/L result_number=37

# per-item lookup of ALT; items listed below
1. O=c1ccc2ccccc2o1 [COUMARIN]
2. CN(CCOc1ccc(CC2SC(=O)NC2=O)cc1)c1ccccn1.O=C(O)/C=C\C(=O)O (stereo unspecified) [ROSIGLITAZONE MALEATE]
3. CCCCNC(=O)NS(=O)(=O)c1ccc(C)cc1 [TOLBUTAMIDE]

Result:
1: 32.4; 2: 32.8; 3: 37
